Assay System: UniProt:P48452
Result Type: pIC50
pIC50 here: minus log base 10 of the concentration, concentration in moles per litre.

Q) Find pIC50 (UniProt:P48452) for the entry `Cn1cc2c3c1C(=O)C1=C(C3=NCC2)C2(C=C(Br)C(=O)C(Br)=C2)CCN1`
A) 5.94
